Hello, the source for this data is PubChem BioAssay AID1963451, in case you need it.

Catalogue of viability, T/C readings, one per entry.
- Test system: 521955-158-R6-J3-PDC complex spheroid growth, % test/control;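 also: spheroids exposed to compounds for 7 days; 100% = DMSO vehicle control wells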
- experiment_notes: Anticancer human tumor 521955-158-R6-J3-PDC patient-derived pancreatic carcinoma cell line growth inhibition [Asc]
- test_parameters: second compound 0.316 µM; first compound 0.00949 µM; active compounds read low
Report only the number, with the unit % understood.

CCN1C(C(=O)NC23CCC(C(=O)O)(CC2)CC3)C(c2cccc(Cl)c2F)C2(C(=O)Nc3cc(Cl)ccc32)C12CCCCC2 (configuration not stated) + CNC(C)C(=O)NC1CN(S(=O)(=O)c2cccc(S(=O)(=O)N3CCC4CCC(C(=O)NC(c5ccccc5)c5ccccc5)N4C(=O)C(NC(=O)C(C)NC)C3)c2)CCC2CCC(C(=O)NC(c3ccccc3)c3ccccc3)N2C1=O; 70.1

Please turn your attention to the following entry.
Challenge: Give the measured viability, T/C of Cc1nc(N2CCC3(CC2)COC(C)C3N)c(CO)nc1Sc1ccnc(N)c1Cl (configuration not stated) + CNC(C)C(=O)NC1CN(S(=O)(=O)c2cccc(S(=O)(=O)N3CCC4CCC(C(=O)NC(c5ccccc5)c5ccccc5)N4C(=O)C(NC(=O)C(C)NC)C3)c2)CCC2CCC(C(=O)NC(c3ccccc3)c3ccccc3)N2C1=O .
Response given: 82.9
